src = ChEMBL document CHEMBL1208782

# target: Bile acid receptor (Homo sapiens)
# Sequence (whole entry): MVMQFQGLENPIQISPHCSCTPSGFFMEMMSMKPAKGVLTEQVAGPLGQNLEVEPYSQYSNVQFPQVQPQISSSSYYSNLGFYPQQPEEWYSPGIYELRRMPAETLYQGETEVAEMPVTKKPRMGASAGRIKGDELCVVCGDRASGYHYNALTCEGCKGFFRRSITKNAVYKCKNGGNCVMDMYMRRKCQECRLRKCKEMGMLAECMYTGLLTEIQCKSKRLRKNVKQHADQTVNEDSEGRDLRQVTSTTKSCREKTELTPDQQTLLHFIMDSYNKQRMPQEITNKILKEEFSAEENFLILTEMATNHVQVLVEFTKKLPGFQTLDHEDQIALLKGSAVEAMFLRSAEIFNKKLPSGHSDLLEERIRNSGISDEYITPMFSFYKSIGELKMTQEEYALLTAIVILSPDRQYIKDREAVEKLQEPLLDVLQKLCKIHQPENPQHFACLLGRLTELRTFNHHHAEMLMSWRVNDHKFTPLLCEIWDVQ
# assay summary: Agonist activity at human full length FXR transfected in HEK293 cells coexpressing pTRexDest/pGL2promotor assessed as luciferase activity by direct reporter cellular assay relative to GW-4064
# Format: functional, cell-based
measurement label: Efficacy (%)
Report as a plain number; the unit % is understood.

{"line notation": "O=C(O)c1ccccc1OCc1ccc(OCc2c(-c3c(Cl)cccc3Cl)noc2C2CC2)nc1C(F)(F)F", "target": "Bile acid receptor (Homo sapiens)", "measurement label": "Efficacy", "unit annotation": "%", "obs value": 33}
{"line notation": "CC(C)c1onc(-c2c(Cl)cccc2Cl)c1COc1ccc(N(C)C(=O)c2cccc(C(=O)O)c2)c(C(F)(F)F)n1", "target": "Bile acid receptor (Homo sapiens)", "measurement label": "Efficacy", "unit annotation": "%", "obs value": 55}

input: Specify measured Efficacy for CC(C)c1onc(-c2c(Cl)cccc2Cl)c1COc1ccc(N(C)Cc2ccc(CCC(=O)O)cc2)c(C(F)(F)F)n1 .
output: 66

input: Fill in reported Efficacy for this entry: CC(C)c1onc(-c2c(Cl)cccc2Cl)c1COc1ccc(N(C)Cc2cccc(C(=O)NS(C)(=O)=O)c2)c(C(F)(F)F)n1
output: 72
